Values from ChEMBL document CHEMBL1909046

Target: Neuropeptide Y receptor type 2 (Homo sapiens); also: in other assays of this panel Not Active means under 50% inhibition at 10 µM
Sequence (P49146 whole entry): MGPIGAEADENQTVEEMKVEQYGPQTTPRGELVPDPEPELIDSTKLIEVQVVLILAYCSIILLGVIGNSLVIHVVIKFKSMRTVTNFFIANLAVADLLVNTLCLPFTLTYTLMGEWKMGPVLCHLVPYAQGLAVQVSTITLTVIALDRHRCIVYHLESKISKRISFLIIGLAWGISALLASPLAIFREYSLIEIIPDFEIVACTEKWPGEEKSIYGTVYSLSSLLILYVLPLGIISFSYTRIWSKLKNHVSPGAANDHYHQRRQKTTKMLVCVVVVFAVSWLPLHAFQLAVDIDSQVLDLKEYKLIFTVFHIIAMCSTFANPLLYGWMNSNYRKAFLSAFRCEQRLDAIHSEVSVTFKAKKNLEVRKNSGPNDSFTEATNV
Type: cell membranes, KAN-TS, Membrane
Conditions: read-out: Ki
Readout: Ki (µM)

[
  {
    "Molecule": "Clc1ccc(COC(Cn2ccnc2)c2ccc(Cl)cc2Cl)cc1 (stereo unspecified)",
    "System under test": "Neuropeptide Y receptor type 2 (Homo sapiens)",
    "Measured result": 11
  }
]

###

Biological target: C-X-C chemokine receptor type 2 (Homo sapiens); also: in other assays of this panel Not Active means under 50% inhibition at 10 µM
Sequence (P25025 whole entry): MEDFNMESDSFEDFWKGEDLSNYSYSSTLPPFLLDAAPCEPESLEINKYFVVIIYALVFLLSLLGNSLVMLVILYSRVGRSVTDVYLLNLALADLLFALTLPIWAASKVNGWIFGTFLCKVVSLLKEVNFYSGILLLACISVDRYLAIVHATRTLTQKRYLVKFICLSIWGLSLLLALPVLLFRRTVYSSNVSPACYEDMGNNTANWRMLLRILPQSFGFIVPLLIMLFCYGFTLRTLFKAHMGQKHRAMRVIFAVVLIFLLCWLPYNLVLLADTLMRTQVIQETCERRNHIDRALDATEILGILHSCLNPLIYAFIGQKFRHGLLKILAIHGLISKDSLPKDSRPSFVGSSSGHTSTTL
Assay type: cell membranes, Membrane
Conditions: cho-k1

[
  {
    "Smi": "COc1ccc(C(=O)N2CCCC2=O)cc1",
    "IC50": "Not Active"
  },
  {
    "Smi": "CC[C@@H](C(=O)[C@@H](C)[C@@H](O)[C@H](C)[C@@H]1O[C@@H]([C@@H](CC)C(=O)O)CC[C@@H]1C)[C@H]1O[C@]2(C=C[C@@H](O)[C@]3(CC[C@@](C)([C@H]4CC[C@](O)(CC)[C@H](C)O4)O3)O2)[C@H](C)C[C@@H]1C",
    "IC50": "Not Active"
  },
  {
    "Smi": "NC(=O)N1C(=O)/C(=C(\\O)c2cccs2)c2cc(Cl)ccc21",
    "IC50": "Not Active"
  }
]

###

Assay: DRUGMATRIX: Sodium/nucleoside co-transporter radioligand binding (ligand: nitrobenzylthioinosine)
Format: cell membranes, Cavia porcellus, Dunkin-Hartley, Cerebral cortex, Membrane
Settings: Not Active = under 50% inhibition at 10 µM
Readout: Ki

[
  {
    "Compound": "CC(C)(C)NC(=O)[C@H]1CC[C@H]2[C@@H]3CC[C@H]4NC(=O)C=C[C@]4(C)[C@H]3CC[C@]12C [FINASTERIDE]",
    "Measured result": "Not Active"
  },
  {
    "Compound": "CCC1(C)CC(=O)NC1=O (stereo not given) [ETHOSUXIMIDE]",
    "Measured result": "Not Active"
  },
  {
    "Compound": "C=CCc1ccc(O)c(OC)c1 [EUGENOL]",
    "Measured result": "Not Active"
  },
  {
    "Compound": "CCC1(CCC(C)C)C(=O)NC(=O)NC1=O [AMOBARBITAL]",
    "Measured result": "Not Active"
  },
  {
    "Compound": "CC1(C)S[C@@H]2[C@H](NC(=O)[C@H](N)c3ccccc3)C(=O)N2[C@H]1C(=O)O [AMPICILLIN]",
    "Measured result": "Not Active"
  },
  {
    "Compound": "NC1CCN(c2nc3c(cc2F)c(=O)c(C(=O)O)cn3-c2ccc(F)cc2F)C1 (stereo not given) [TOSUFLOXACIN]",
    "Measured result": "Not Active"
  },
  {
    "Compound": "C[C@]12C=CC(=O)C=C1CC[C@@H]1[C@@H]2[C@@H](O)C[C@@]2(C)[C@H]1CC[C@]2(O)C(=O)CO [PREDNISOLONE]",
    "Measured result": "Not Active"
  },
  {
    "Compound": "NC(=O)C[S+]([O-])C(c1ccccc1)c1ccccc1 (stereo not given) [MODAFINIL]",
    "Measured result": "Not Active"
  },
  {
    "Compound": "O=C1Nc2ccc(Cl)cc2C(c2ccccc2Cl)=NC1O (stereo not given) [LORAZEPAM]",
    "Measured result": "Not Active"
  },
  {
    "Compound": "CCCCNc1ccc(C(=O)OCCN(C)C)cc1 [TETRACAINE]",
    "Measured result": "Not Active"
  }
]

###

Biological target: Cytochrome P450 2D6 (Homo sapiens, UniProt P10635); also: in other assays of this panel Not Active means under 50% inhibition at 10 µM
Sequence (P10635 whole entry): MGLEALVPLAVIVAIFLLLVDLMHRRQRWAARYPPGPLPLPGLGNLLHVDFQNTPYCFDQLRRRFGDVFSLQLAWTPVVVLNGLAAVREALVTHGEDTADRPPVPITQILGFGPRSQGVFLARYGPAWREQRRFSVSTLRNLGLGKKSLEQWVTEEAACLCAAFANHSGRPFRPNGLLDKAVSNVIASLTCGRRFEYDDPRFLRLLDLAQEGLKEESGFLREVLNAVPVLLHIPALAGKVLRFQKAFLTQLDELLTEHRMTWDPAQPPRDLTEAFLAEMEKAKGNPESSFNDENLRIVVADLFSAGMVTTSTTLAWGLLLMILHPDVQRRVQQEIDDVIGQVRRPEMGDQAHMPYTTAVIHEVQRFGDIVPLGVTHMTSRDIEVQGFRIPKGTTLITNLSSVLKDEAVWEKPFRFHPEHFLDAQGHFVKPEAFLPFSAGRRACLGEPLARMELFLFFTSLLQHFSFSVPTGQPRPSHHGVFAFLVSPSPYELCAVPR
Conditions: bti-tn-5b1-4
Readout: IC50

[
  {
    "Compound": "CCN(CC)CCNC(=O)c1cc(S(C)(=O)=O)ccc1OC [TIAPRIDE]",
    "System under test": "Cytochrome P450 2D6 (Homo sapiens, UniProt P10635)",
    "Readout": "IC50",
    "Measured result": "Not Active"
  },
  {
    "Compound": "Nc1ccn([C@@H]2O[C@H](CO)[C@@H](O)[C@@H]2O)c(=O)n1",
    "System under test": "Cytochrome P450 2D6 (Homo sapiens, UniProt P10635)",
    "Readout": "IC50",
    "Measured result": "Not Active"
  },
  {
    "Compound": "Cn1c(=O)c2[nH]cnc2n(C)c1=O.Cn1c(=O)c2[nH]cnc2n(C)c1=O.NCCN",
    "System under test": "Cytochrome P450 2D6 (Homo sapiens, UniProt P10635)",
    "Readout": "IC50",
    "Measured result": "Not Active"
  },
  {
    "Compound": "COC(=O)Nc1nc2ccc([S+]([O-])c3ccccc3)cc2[nH]1 (stereo unspecified)",
    "System under test": "Cytochrome P450 2D6 (Homo sapiens, UniProt P10635)",
    "Readout": "IC50",
    "Measured result": "Not Active"
  },
  {
    "Compound": "CN[C@H]1CC[C@@H](c2ccc(Cl)c(Cl)c2)c2ccccc21",
    "System under test": "Cytochrome P450 2D6 (Homo sapiens, UniProt P10635)",
    "Readout": "IC50",
    "Measured result": "Not Active"
  },
  {
    "Compound": "O.O.O.O.O.O.[Cl-].[Cl-].[Sr+2] [STRONTIUM CHLORIDE HEXAHYDRATE]",
    "System under test": "Cytochrome P450 2D6 (Homo sapiens, UniProt P10635)",
    "Readout": "IC50",
    "Measured result": "Not Active"
  },
  {
    "Compound": "C=CCc1ccc(O)c(OC)c1",
    "System under test": "Cytochrome P450 2D6 (Homo sapiens, UniProt P10635)",
    "Readout": "IC50",
    "Measured result": "Not Active"
  },
  {
    "Compound": "CCCOc1ccc(C(=O)OCCN(CC)CC)cc1N",
    "System under test": "Cytochrome P450 2D6 (Homo sapiens, UniProt P10635)",
    "Readout": "IC50",
    "Measured result": "Not Active"
  },
  {
    "Compound": "CC(C)Cc1ccc([C@@H](C)C(=O)O)cc1 [(R)-IBUPROPHEN]",
    "System under test": "Cytochrome P450 2D6 (Homo sapiens, UniProt P10635)",
    "Readout": "IC50",
    "Measured result": "Not Active"
  },
  {
    "Compound": "O=C(O)c1cn(-c2ccc(F)cc2)c2cc(N3CCNCC3)c(F)cc2c1=O",
    "System under test": "Cytochrome P450 2D6 (Homo sapiens, UniProt P10635)",
    "Readout": "IC50",
    "Measured result": "Not Active"
  },
  {
    "Compound": "NNc1nncc2ccccc12 [HYDRALAZINE]",
    "System under test": "Cytochrome P450 2D6 (Homo sapiens, UniProt P10635)",
    "Readout": "IC50",
    "Measured result": "Not Active"
  },
  {
    "Compound": "CO[C@H]1/C=C/O[C@@]2(C)Oc3c(C)c(O)c4c(O)c(c(/C=N/N5CCN(C6CCCC6)CC5)c(O)c4c3C2=O)NC(=O)/C(C)=C\\C=C\\[C@H](C)[C@H](O)[C@@H](C)[C@@H](O)[C@@H](C)[C@H](OC(C)=O)[C@@H]1C",
    "System under test": "Cytochrome P450 2D6 (Homo sapiens, UniProt P10635)",
    "Readout": "IC50",
    "Measured result": "Not Active"
  },
  {
    "Compound": "O=C1CN=C(c2ccccc2Cl)c2cc([N+](=O)[O-])ccc2N1",
    "System under test": "Cytochrome P450 2D6 (Homo sapiens, UniProt P10635)",
    "Readout": "IC50",
    "Measured result": "Not Active"
  },
  {
    "Compound": "O=C(O)c1cccnc1Nc1cccc(C(F)(F)F)c1",
    "System under test": "Cytochrome P450 2D6 (Homo sapiens, UniProt P10635)",
    "Readout": "IC50",
    "Measured result": "Not Active"
  },
  {
    "Compound": "C[C@@H]1CC[C@@]2(OC1)O[C@H]1[C@@H](O)[C@H]3[C@@H]4CC[C@H]5C[C@@H](O[C@@H]6O[C@H](CO)[C@H](O[C@@H]7O[C@H](CO)C(O)[C@H](O[C@@H]8OC[C@@H](O)[C@H](O)[C@H]8O)[C@H]7O[C@@H]7O[C@H](CO)[C@H](O)[C@H](O[C@@H]8O[C@H](CO)[C@@H](O)[C@H](O)[C@H]8O)[C@H]7O)[C@H](O)[C@H]6O)[C@H](O)C[C@]5(C)[C@H]4CC[C@]3(C)[C@H]1[C@@H]2C (stereo partly specified)",
    "System under test": "Cytochrome P450 2D6 (Homo sapiens, UniProt P10635)",
    "Readout": "IC50",
    "Measured result": "Not Active"
  },
  {
    "Compound": "O=C1Nc2ccc(Cl)cc2C(c2ccccc2Cl)=NC1O (stereo unspecified)",
    "System under test": "Cytochrome P450 2D6 (Homo sapiens, UniProt P10635)",
    "Readout": "IC50",
    "Measured result": "Not Active"
  },
  {
    "Compound": "CCn1cc(C(=O)O)c(=O)c2cnc(N3CCCC3)nc21",
    "System under test": "Cytochrome P450 2D6 (Homo sapiens, UniProt P10635)",
    "Readout": "IC50",
    "Measured result": "Not Active"
  },
  {
    "Compound": "CC(=O)[C@H]1[C@H](C#N)C[C@H]2[C@@H]3CC=C4C[C@@H](O)CC[C@]4(C)[C@H]3CC[C@@]21C",
    "System under test": "Cytochrome P450 2D6 (Homo sapiens, UniProt P10635)",
    "Readout": "IC50",
    "Measured result": "Not Active"
  },
  {
    "Compound": "COc1c2occc2cc2ccc(=O)oc12",
    "System under test": "Cytochrome P450 2D6 (Homo sapiens, UniProt P10635)",
    "Readout": "IC50",
    "Measured result": "Not Active"
  },
  {
    "Compound": "CCCCOc1cc(CC2CNC(=O)N2)ccc1OC (stereo unspecified)",
    "System under test": "Cytochrome P450 2D6 (Homo sapiens, UniProt P10635)",
    "Readout": "IC50",
    "Measured result": "Not Active"
  },
  {
    "Compound": "C[C@@H]1C[C@H]2[C@@H]3CCC4=CC(=O)C=C[C@]4(C)[C@@]3(F)[C@@H](O)C[C@]2(C)[C@H]1C(=O)CO",
    "System under test": "Cytochrome P450 2D6 (Homo sapiens, UniProt P10635)",
    "Readout": "IC50",
    "Measured result": "Not Active"
  },
  {
    "Compound": "C[C@@H]1O[C@@H](O[C@@H]2C=C3CC[C@@H]4[C@H](CC[C@]5(C)[C@@H](c6ccc(=O)oc6)CC[C@]45O)[C@@]3(C)CC2)[C@H](O)[C@H](O)[C@H]1O",
    "System under test": "Cytochrome P450 2D6 (Homo sapiens, UniProt P10635)",
    "Readout": "IC50",
    "Measured result": "Not Active"
  },
  {
    "Compound": "O=C1C(CC[S+]([O-])c2ccccc2)C(=O)N(c2ccccc2)N1c1ccccc1 (stereo unspecified)",
    "System under test": "Cytochrome P450 2D6 (Homo sapiens, UniProt P10635)",
    "Readout": "IC50",
    "Measured result": "Not Active"
  },
  {
    "Compound": "O=C(Oc1ccccc1C(=O)O)c1ccccc1O [SALSALATE]",
    "System under test": "Cytochrome P450 2D6 (Homo sapiens, UniProt P10635)",
    "Readout": "IC50",
    "Measured result": "Not Active"
  },
  {
    "Compound": "CC(C(=O)O)c1cccc(Oc2ccccc2)c1 (stereo unspecified)",
    "System under test": "Cytochrome P450 2D6 (Homo sapiens, UniProt P10635)",
    "Readout": "IC50",
    "Measured result": "Not Active"
  },
  {
    "Compound": "COC(=O)CCc1ccc(OCC(O)CNC(C)C)cc1 (stereo unspecified)",
    "System under test": "Cytochrome P450 2D6 (Homo sapiens, UniProt P10635)",
    "Readout": "IC50",
    "Measured result": "Not Active"
  },
  {
    "Compound": "N=C(N)NC(=O)Cc1c(Cl)cccc1Cl",
    "System under test": "Cytochrome P450 2D6 (Homo sapiens, UniProt P10635)",
    "Readout": "IC50",
    "Measured result": "Not Active"
  },
  {
    "Compound": "Nc1ccn([C@@H]2O[C@H](CO)[C@@H](O)C2(F)F)c(=O)n1",
    "System under test": "Cytochrome P450 2D6 (Homo sapiens, UniProt P10635)",
    "Readout": "IC50",
    "Measured result": "Not Active"
  },
  {
    "Compound": "O=c1cc(N2CCOCC2)oc2c(-c3ccccc3)cccc12",
    "System under test": "Cytochrome P450 2D6 (Homo sapiens, UniProt P10635)",
    "Readout": "IC50",
    "Measured result": "Not Active"
  },
  {
    "Compound": "CN(C)CC[C@@H](c1ccc(Cl)cc1)c1ccccn1",
    "System under test": "Cytochrome P450 2D6 (Homo sapiens, UniProt P10635)",
    "Readout": "IC50",
    "Measured result": "Not Active"
  },
  {
    "Compound": "O=c1cnn([C@@H]2O[C@H](CO)[C@@H](O)[C@H]2O)c(=O)[nH]1",
    "System under test": "Cytochrome P450 2D6 (Homo sapiens, UniProt P10635)",
    "Readout": "IC50",
    "Measured result": "Not Active"
  }
]
